# assay-target: T1, human OPGbp [143-317] (human, UniProt O14788 143-317)
# T1 construct: also called OPGL
# T1 sequence (looked up): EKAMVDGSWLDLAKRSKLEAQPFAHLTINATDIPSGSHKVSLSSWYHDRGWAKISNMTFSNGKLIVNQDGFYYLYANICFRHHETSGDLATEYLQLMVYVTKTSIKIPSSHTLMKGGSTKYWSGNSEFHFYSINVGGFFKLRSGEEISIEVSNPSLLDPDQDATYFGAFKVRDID
# assay-details: SPR (BIAcore), immobilized OPGbp [143-317]
parameter: kon (M⁻¹ s⁻¹)
Write the number in M⁻¹ s⁻¹ without appending the unit.

Completed entries (count: 4):
binder	endpoint-unit	kon
“AT” antibody variant S97I (heavy chain CDR3) (antibody, name in Kabat numbering, V domains shown, not shown: human IgG1 CH1, hinge, CH2 and CH3) VH: QVQLVQSGAEVRKPGASVKVSCKASGYDFSNYAIHWVRQAPGQRLEWMGWINAGNGNTKFSQKFQGRITVTRDTAASTAYMELRSLRSEDTAVYYCARDSINMVRGIIIAYYFDYWGQGTLVTVSS VL: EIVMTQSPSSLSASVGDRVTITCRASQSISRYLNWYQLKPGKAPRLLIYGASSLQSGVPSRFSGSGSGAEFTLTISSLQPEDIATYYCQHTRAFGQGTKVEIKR	M⁻¹ s⁻¹	2.1e+06
“AT” antibody variant S97M (heavy chain CDR3) (antibody, name in Kabat numbering, V domains shown, not shown: human IgG1 CH1, hinge, CH2 and CH3) VH: QVQLVQSGAEVRKPGASVKVSCKASGYDFSNYAIHWVRQAPGQRLEWMGWINAGNGNTKFSQKFQGRITVTRDTAASTAYMELRSLRSEDTAVYYCARDSMNMVRGIIIAYYFDYWGQGTLVTVSS VL: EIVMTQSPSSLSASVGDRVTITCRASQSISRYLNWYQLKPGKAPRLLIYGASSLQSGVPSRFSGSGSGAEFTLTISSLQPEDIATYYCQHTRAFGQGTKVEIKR	M⁻¹ s⁻¹	2.33e+06
“AT” antibody variant S97R (heavy chain CDR3) (antibody, name in Kabat numbering, V domains shown, not shown: human IgG1 CH1, hinge, CH2 and CH3) VH: QVQLVQSGAEVRKPGASVKVSCKASGYDFSNYAIHWVRQAPGQRLEWMGWINAGNGNTKFSQKFQGRITVTRDTAASTAYMELRSLRSEDTAVYYCARDSRNMVRGIIIAYYFDYWGQGTLVTVSS VL: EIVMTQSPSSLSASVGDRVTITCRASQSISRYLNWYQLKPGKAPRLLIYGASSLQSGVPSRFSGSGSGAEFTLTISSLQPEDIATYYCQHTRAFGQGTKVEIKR	M⁻¹ s⁻¹	4.09e+06
“AT” antibody variant S97P (heavy chain CDR3) (antibody, name in Kabat numbering, V domains shown, not shown: human IgG1 CH1, hinge, CH2 and CH3) VH: QVQLVQSGAEVRKPGASVKVSCKASGYDFSNYAIHWVRQAPGQRLEWMGWINAGNGNTKFSQKFQGRITVTRDTAASTAYMELRSLRSEDTAVYYCARDSPNMVRGIIIAYYFDYWGQGTLVTVSS VL: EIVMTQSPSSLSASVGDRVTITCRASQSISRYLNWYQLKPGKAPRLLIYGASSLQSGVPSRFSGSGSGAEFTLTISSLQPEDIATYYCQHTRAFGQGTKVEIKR	M⁻¹ s⁻¹	1.1e+06

Exam item: Using the record for “AT” antibody variant S97N (heavy chain CDR3) (antibody, name in Kabat numbering, V domains shown, not shown: human IgG1 CH1, hinge, CH2 and CH3) VH: QVQLVQSGAEVRKPGASVKVSCKASGYDFSNYAIHWVRQAPGQRLEWMGWINAGNGNTKFSQKFQGRITVTRDTAASTAYMELRSLRSEDTAVYYCARDSNNMVRGIIIAYYFDYWGQGTLVTVSS VL: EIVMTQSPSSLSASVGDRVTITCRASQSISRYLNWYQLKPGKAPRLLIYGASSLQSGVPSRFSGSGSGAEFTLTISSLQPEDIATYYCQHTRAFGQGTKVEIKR , report its kon.
Marked response: 895000

Exam item: Data request, read-out kon, for “AT” antibody variant S97H (heavy chain CDR3) (antibody, name in Kabat numbering, V domains shown, not shown: human IgG1 CH1, hinge, CH2 and CH3) VH: QVQLVQSGAEVRKPGASVKVSCKASGYDFSNYAIHWVRQAPGQRLEWMGWINAGNGNTKFSQKFQGRITVTRDTAASTAYMELRSLRSEDTAVYYCARDSHNMVRGIIIAYYFDYWGQGTLVTVSS VL: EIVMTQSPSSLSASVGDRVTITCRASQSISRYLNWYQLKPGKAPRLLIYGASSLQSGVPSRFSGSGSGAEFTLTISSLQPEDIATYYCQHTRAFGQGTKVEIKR
Marked response: 839000
